# Test system: Rattus norvegicus
# TEST_SUMMARY: Percentage inhibition of DA neural firing after administration the compound at a dose of 2.5 mg/Kg through ip route in rats.
# Type: functional
# PROTOCOL_CONDITIONS: Rattus norvegicus, ip
ASSAY_METRIC: inhibition in vivo at 2.5 mg/kg (%)
Lab book: enter the figure in %, no units written.

Known inhibition in vivo at 2.5 mg/kg results, listed for orientation:
{"MOLECULE": "CCCN1CCCC2c3nc(N)sc3CCC21 (stereo in doubt; 29)", "MEASURED_RESULT": 94}
{"MOLECULE": "CCCN1CCCC(c2cccc(O)c2)C1 (single isomer, unassigned; (+))", "MEASURED_RESULT": 100}
{"MOLECULE": "CCCN1CCC=C(c2csc(N)n2)C1", "MEASURED_RESULT": 100}

Query inhibition in vivo at 2.5 mg/kg for CCCN1CCC=C2c3nc(N)sc3CCC21 (racemic) 100

* * *

# Tested on: Mus musculus
# TEST_SUMMARY: Effective dose required to inhibit the Locomotor activity in mouse after ip administration.
# Type: functional
# PROTOCOL_CONDITIONS: Mus musculus, ip; read-out: ED50
ASSAY_METRIC: ED50 (mg/kg)
Answer format: numeric, mg/kg implied, no suffix.

Fill in reported ED50 for this entry: CN1CCc2cccc3c2[C@H]1Cc1ccc(O)c(O)c1-3 [APOMORPHINE] 6.9

Give the reported value of ED50 for this record: CCCN1CCC=C(c2csc(N)n2)C1 4.3

Indicate its recorded ED50; the compound in question is CCCN1CCC2=C(CCc3sc(N)nc32)C1 18.8

Find the measured ED50 of CCCN1CCC=C2c3nc(N)sc3CCC21 (racemic) and report it. 9.4

* * *

Parameter ED50: see the listing below.
# Tested on: Mus musculus
# TEST_SUMMARY: Effective dose required to inhibit the Locomotor activity in mouse after ip administration.
# Assay type: functional
# PROTOCOL_CONDITIONS: Mus musculus, ip; read-out: ED50

In the examples that follow, each entry is paired with its recorded ED50.
{"COMPOUND": "CCCN1CCCC2c3nc(N)sc3CCCC21 (centres undefined)", "TESTED_SYSTEM": "Mus musculus", "ED50": "> 30 mg/kg"}
{"COMPOUND": "CCCN1CCC=C2c3nc(N)sc3CCCC21 (centres undefined)", "TESTED_SYSTEM": "Mus musculus", "ED50": "> 20 mg/kg"}
{"COMPOUND": "CCCN1CC=C2c3nc(N)sc3CCC2C1 (centres undefined)", "TESTED_SYSTEM": "Mus musculus", "ED50": "> 30 mg/kg"}

Tell me measured ED50 for Nc1nc2c(s1)CCC1NCCCC21 (stereo in doubt; 26) please. > 30 mg/kg
